# Target system: Kappa-type opioid receptor (Homo sapiens)
# Sequence (P41145 whole entry): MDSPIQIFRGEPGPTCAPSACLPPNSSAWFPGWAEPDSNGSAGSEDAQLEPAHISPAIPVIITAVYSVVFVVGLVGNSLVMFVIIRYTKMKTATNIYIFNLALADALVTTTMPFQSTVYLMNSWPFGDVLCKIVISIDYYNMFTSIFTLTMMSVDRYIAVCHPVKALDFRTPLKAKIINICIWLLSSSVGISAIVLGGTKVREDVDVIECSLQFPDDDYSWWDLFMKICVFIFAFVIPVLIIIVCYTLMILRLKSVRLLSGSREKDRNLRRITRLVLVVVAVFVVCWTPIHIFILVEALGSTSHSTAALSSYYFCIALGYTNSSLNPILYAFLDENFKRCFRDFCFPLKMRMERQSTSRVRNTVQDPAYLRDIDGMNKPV
# Procedure text: Inhibition of human Kappa-type opioid receptor assessed as inhibition constant
pKi: −log10 of the molar value.
Recorded endpoint: pKi

Given the molecule "Clc1cc2c(NC3CCCC3)nnc(-c3ccncc3)c2cc1Cl" , what is its reported pKi? < 5.00

----------
# Procedure text: Inhibition of H4K20me1 in human LNCaP cells incubated for 48 hrs by Western blotting analysis
# Assay type: functional, cell-based
Recorded endpoint: IC50 (nM)
Record the value in nM, omitting the unit from your answer.

Given the molecule "Clc1cc2c(NC3CCCC3)nnc(-c3ccncc3)c2cc1Cl" , what is its reported IC50? 799

----------
# Target system: L-type calcium channel (verapamil binding site) (Homo sapiens, UniProt O60840+Q01668+Q13698+Q13936)
# Procedure text: Inhibition of human L-type calcium channel verapamil binding site at 10 uM relative to control
# Format: protein assay
Recorded endpoint: inhibition at 10 µM (%)
Record the value in %, omitting the unit from your answer.

Clc1cc2c(NC3CCCC3)nnc(-c3ccncc3)c2cc1Cl :: -4

In the following, a different molecule is considered.
Given the molecule "O=C(c1nnc(NC2CCCC2)c2cc(Cl)c(Cl)cc12)N1CCC(O)CC1" , what is its reported inhibition at 10 µM? 4

----------
# Target system: Adenosine receptor A1 (Homo sapiens, UniProt P30542)
# Sequence (P30542 whole entry): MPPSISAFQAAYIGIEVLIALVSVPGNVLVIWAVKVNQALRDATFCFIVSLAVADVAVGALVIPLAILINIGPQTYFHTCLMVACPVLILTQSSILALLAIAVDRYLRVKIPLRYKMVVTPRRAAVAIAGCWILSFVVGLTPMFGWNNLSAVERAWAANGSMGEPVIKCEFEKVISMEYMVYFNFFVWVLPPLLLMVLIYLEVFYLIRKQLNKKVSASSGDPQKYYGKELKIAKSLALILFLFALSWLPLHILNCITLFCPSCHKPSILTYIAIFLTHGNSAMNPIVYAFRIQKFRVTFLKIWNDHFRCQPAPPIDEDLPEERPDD
Recorded endpoint: pKi
Quick note: pKi means taking -log10 of the concentration in moles per liter.

Provide the documented pKi with Adenosine receptor A1 (Homo sapiens, UniProt P30542) as the system for "Clc1cc2c(NC3CCCC3)nnc(-c3ccncc3)c2cc1Cl" 7.68

----------
# Procedure text: Inhibition of H4K20me1 in human U2OS cells incubated for 48 hrs by Western blotting analysis
# Assay type: functional, cell-based
Recorded endpoint: IC50 (nM)
Record the value in nM, omitting the unit from your answer.

Given the compound "Clc1cc2c(NC3CCCC3)nnc(-c3ccncc3)c2cc1Cl" , what is its reported IC50? 736

----------
Protein target, amino acids: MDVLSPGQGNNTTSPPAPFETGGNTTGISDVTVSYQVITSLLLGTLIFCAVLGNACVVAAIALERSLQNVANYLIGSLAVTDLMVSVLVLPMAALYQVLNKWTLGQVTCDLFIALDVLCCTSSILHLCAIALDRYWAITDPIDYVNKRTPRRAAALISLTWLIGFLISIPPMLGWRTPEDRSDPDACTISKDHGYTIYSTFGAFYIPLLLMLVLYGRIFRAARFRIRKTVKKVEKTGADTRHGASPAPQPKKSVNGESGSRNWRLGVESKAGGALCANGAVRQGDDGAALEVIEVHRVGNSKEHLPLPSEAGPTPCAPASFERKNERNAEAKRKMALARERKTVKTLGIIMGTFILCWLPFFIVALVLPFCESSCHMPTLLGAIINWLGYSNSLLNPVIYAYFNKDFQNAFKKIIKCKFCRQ
Recorded endpoint: Ki

Given the compound "O=C(c1nnc(NC2CCCC2)c2cc(Cl)c(Cl)cc12)N1CCC(O)CC1" , what is its reported Ki? > 10 µM

Numbers sourced from ChEMBL document CHEMBL5649167.
